- Tested on: HeLa Kyoto
- assay procedure: melting temperature (median over replicates), in situ; higher = more thermally stable
- condition label: cell cycle stage: G1/S
Would you kindly list melting temperature for each of these sequences?
One number for each entry, in °C.

INSERT INTO assay_data (query_sequence, value_measured) VALUES
  ('MADHSFSDGVPSDSVEAAKNASNTEKLTDQVMQNPRVLAALQERLDNVPHTPSSYIETLPKAVKRRINALKQLQVRCAHIEAKFYEEVHDLERKYAALYQPLFDKRREFITGDVEPTDAESEWHSENEEEEKLAGDMKSKVVVTEKAAATAEEPDPKGIPEFWFTIFRNVDMLSELVQEYDEPILKHLQDIKVKFSDPGQPMSFVLEFHFEPNDYFTNSVLTKTYKMKSEPDKADPFSFEGPEIVDCDGCTIDWKKGKNVTVKTIKKKQKHKGRGTVRTITKQVPNESFFNFFNPLKASGDGESLDEDSEFTLASDFEIGHFFRERIVPRAVLYFTGEAIEDDDNFEEGEEGEEEELEGDEEGEDEDDAEINPKV [NAP1L4]', 51.4);

Now look at this entry.
Item MVEKEEAGGGISEEEAAQYDRQIRLWGLEAQKRLRASRVLLVGLKGLGAEIAKNLILAGVKGLTMLDHEQVTPEDPGAQFLIRTGSVGRNRAEASLERAQNLNPMVDVKVDTEDIEKKPESFFTQFDAVCLTCCSRDVIVKVDQICHKNSIKFFTGDVFGYHGYTFANLGEHEFVEEKTKVAKVSQGVEDGPDTKRAKLDSSETTMVKKKVVFCPVKEALEVDWSSEKAKAALKRTTSDYFLLQVLLKFRTDKGRDPSSDTYEEDSELLLQIRNDVLDSLGISPDLLPEDFVRYCFSEMAPVCAVVGGILAQEIVKALSQRDPPHNNFFFFDGMKGNGIVECLGPK [SAE1] : provide melting temperature
52.4

* * *

Would you kindly list melting temperature for each of these sequences?
- Tested on: HeLa Kyoto;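 note: HeLa Kyoto cells synchronized by double thymidine or nocodazole block, proteins quantified by TMT10plex mass spectrometry, three independent biological replicates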
- assay procedure: melting temperature (median over replicates), in situ; higher = more thermally stable
- condition label: cell cycle stage: G1/S
One number for each entry, in °C.

// below: answered sequences
INSERT INTO assay_data (query_sequence, measure_name, units_label, value_measured) VALUES
  ('MGIQGGSVLFGLLLVLAVFCHSGHSLQCYNCPNPTADCKTAVNCSSDFDACLITKAGLQVYNKCWKFEHCNFNDVTTRLRENELTYYCCKKDLCNFNEQLENGGTSLSEKTVLLLVTPFLAAAWSLHP [CD59]', 'melting temperature', '°C', 56.8),
  ('MAFLRSMWGVLSALGRSGAELCTGCGSRLRSPFSFVYLPRWFSSVLASCPKKPVSSYLRFSKEQLPIFKAQNPDAKTTELIRRIAQRWRELPDSKKKIYQDAYRAEWQVYKEEISRFKEQLTPSQIMSLEKEIMDKHLKRKAMTKKKELTLLGKPKRPRSAYNVYVAERFQEAKGDSPQEKLKTVKENWKNLSDSEKELYIQHAKEDETRYHNEMKSWEEQMIEVGRKDLLRRTIKKQRKYGAEEC [TFAM]', 'melting temperature', '°C', 53.1),
  ('MSNRVVCREASHAGSWYTASGPQLNAQLEGWLSQVQSTKRPARAIIAPHAGYTYCGSCAAHAYKQVDPSITRRIFILGPSHHVPLSRCALSSVDIYRTPLYDLRIDQKIYGELWKTGMFERMSLQTDEDEHSIEMHLPYTAKAMESHKDEFTIIPVLVGALSESKEQEFGKLFSKYLADPSNLFVVSSDFCHWGQRFRYSYYDESQGEIYRSIEHLDKMGMSIIEQLDPVSFSNYLKKYHNTICGRHPIGVLLNAITELQKNGMNMSFSFLNYAQSSQCRNWQDSSVSYAAGALTVH [MEMO1]', 'melting temperature', '°C', 53.7),
  ('MAGRGGAARPNGPAAGNKICQFKLVLLGESAVGKSSLVLRFVKGQFHEYQESTIGAAFLTQTVCLDDTTVKFEIWDTAGQERYHSLAPMYYRGAQAAIVVYDITNTDTFARAKNWVKELQRQASPNIVIALAGNKADLASKRAVEFQEAQAYADDNSLLFMETSAKTAMNVNEIFMAIAKKLPKNEPQNATGAPGRNRGVDLQENNPASRSQCCSN [RAB5C]', 'melting temperature', '°C', 58.7),
  ('MESVSCSAAAVRTGDMESQRDLSLVPERLQRREQERQLEVERRKQKRQNQEVEKENSHFFVATFVRERAAVEELLERAESVERLEEAASRLQGLQKLINDSVFFLAAYDLRQGQEALARLQAALAERRRGLQPKKRFAFKTRGKDAASSTKVDAAPGIPPAVESIQDSPLPKKAEGDLGPSWVCGFSNLESQVLEKRASELHQRDVLLTELSNCTVRLYGNPNTLRLTKAHSCKLLCGPVSTSVFLEDCSDCVLAVACQQLRIHSTKDTRIFLQVTSRAIVEDCSGIQFAPYTWSYPEIDKDFESSGLDRSKNNWNDVDDFNWLARDMASPNWSILPEEERNIQWD [TBCC]', 'melting temperature', '°C', 51.8);

Provide each entry's melting temperature from the list below.
1. MALAARLLPQFLHSRSLPCGAVRLRTPAVAEVRLPSATLCYFCRCRLGLGAALFPRSARALAASALPAQGSRWPVLSSPGLPAAFASFPACPQRSYSTEEKPQQHQKTKMIVLGFSNPINWVRTRIKAFLIWAYFDKEFSITEFSEGAKQAFAHVSKLLSQCKFDLLEELVAKEVLHALKEKVTSLPDNHKNALAANIDEIVFTSTGDISIYYDEKGRKFVNILMCFWYLTSANIPSETLRGASVFQVKLGNQNVETKQLLSASYEFQREFTQGVKPDWTIARIEHSKLLE [C2ORF47]
2. MSDSGEQNYGERESRSASRSGSAHGSGKSARHTPARSRSKEDSRRSRSKSRSRSESRSRSRRSSRRHYTRSRSRSRSHRRSRSRSYSRDYRRRHSHSHSPMSTRRRHVGNRANPDPNCCLGVFGLSLYTTERDLREVFSKYGPIADVSIVYDQQSRRSRGFAFVYFENVDDAKEAKERANGMELDGRRIRVDFSITKRPHTPTPGIYMGRPTYGSSRRRDYYDRGYDRGYDDRDYYSRSYRGGGGGGGGWRAAQDRDQIYRRRSPSPYYSRGGYRSRSRSRSYSPRRY [TRA2B]

53.7
49.9

Data credit: the supplement of paper PMC5998384
